target: CDK8/Cyclin C (Homo sapiens, UniProt P49336); test: NanoBRET live-cell target engagement, NanoLuc-CDK8/Cyclin C in HEK-293; format: binding; details: CDK8/C; experiment 1; read-out: IC50
Sequence (P49336 whole entry): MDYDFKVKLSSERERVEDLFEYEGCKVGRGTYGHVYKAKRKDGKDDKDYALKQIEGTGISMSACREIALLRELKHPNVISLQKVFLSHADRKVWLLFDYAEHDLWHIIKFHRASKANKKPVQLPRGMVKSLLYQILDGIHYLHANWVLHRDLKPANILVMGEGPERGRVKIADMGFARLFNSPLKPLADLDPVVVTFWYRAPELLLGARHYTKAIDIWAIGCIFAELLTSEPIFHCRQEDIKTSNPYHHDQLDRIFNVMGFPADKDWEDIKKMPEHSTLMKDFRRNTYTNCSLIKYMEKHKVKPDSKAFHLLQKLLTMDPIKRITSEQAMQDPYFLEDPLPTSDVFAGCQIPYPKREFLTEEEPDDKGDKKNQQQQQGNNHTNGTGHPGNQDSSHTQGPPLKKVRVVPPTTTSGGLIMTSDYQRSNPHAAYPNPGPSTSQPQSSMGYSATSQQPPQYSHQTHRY
Sequence (P24863 whole entry partner): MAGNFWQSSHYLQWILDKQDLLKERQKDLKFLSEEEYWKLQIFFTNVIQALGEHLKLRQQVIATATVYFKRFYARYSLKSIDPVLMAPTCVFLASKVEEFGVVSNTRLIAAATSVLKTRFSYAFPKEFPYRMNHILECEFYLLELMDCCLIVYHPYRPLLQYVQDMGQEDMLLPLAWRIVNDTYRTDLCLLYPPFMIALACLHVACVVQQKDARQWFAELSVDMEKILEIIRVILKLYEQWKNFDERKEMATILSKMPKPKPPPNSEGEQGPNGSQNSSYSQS
pIC50: −log10 of the molar value.
Quick list: pIC50 per entry.
reportedEndpoint: pIC50

>>> df
                                   compound  quantitativeresult
0  CCn1cnc2c(Nc3cccc(Cl)c3)nc(N[C@@H]3CCCC[C@@H]3N)nc21 [CGP74514A]                6.54
1  CN1CCN(Cc2ccc(NC(=O)Nc3ccc(Oc4ccnc(N)n4)cc3)cc2C(F)(F)F)CC1                8.68

* * *

tested on: phospho-Rb (Ser 807/811); assay: Endogenous phospho-Rb (Ser 807/811) Lumit immunoassay in MCF7 cells; assay type: cell-based, human; conditions: Homo sapiens; MCF7 cells; Panel F pIC50 correlations;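 note: Serum-starved cells exposed to compounds for 24 h with 25 ng/mL hEGF, then lysed, phospho-Rb detected by split-luciferase antibody pair luminescence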
pIC50: −log10 of the molar value.
Quick list: pIC50 per entry.
reportedEndpoint: pIC50

                                inputsmiles             assayedsystem  reportedendpoint  quantitativeresult
0  CC(=O)c1c(C)c2cnc(Nc3ccc(N4CCNCC4)cn3)nc2n(C2CCCC2)c1=O  phospho-Rb (Ser 807/811)             pIC50                7.61
1  CCN1CCN(Cc2ccc(Nc3ncc(F)c(-c4cc(F)c5nc(C)n(C(C)C)c5c4)n3)nc2)CC1  phospho-Rb (Ser 807/811)             pIC50                7.34
2  CN(C)C(=O)c1cc2cnc(Nc3ccc(N4CCNCC4)cn3)nc2n1C1CCCC1  phospho-Rb (Ser 807/811)             pIC50                6.78
3  CN1CCN(c2ccc(Nc3ncc4cc5n(c4n3)C3(CCCCC3)CNC5=O)nc2)CC1  phospho-Rb (Ser 807/811)             pIC50                7.68

* * *

Quick list: inhibition at 10 µM per entry.
biological target: CDK11A/Cyclin L2 (Homo sapiens, UniProt Q9UQ88); assay: NanoBRET live-cell target engagement, CDK11A-NanoLuc/Cyclin L2 in HEK-293; assay type: binding; settings: CDK11a/L2; 10µM; read-out: Inhibition at 10µM (%) Replicate 2
Sequence (Q9UQ88 whole entry): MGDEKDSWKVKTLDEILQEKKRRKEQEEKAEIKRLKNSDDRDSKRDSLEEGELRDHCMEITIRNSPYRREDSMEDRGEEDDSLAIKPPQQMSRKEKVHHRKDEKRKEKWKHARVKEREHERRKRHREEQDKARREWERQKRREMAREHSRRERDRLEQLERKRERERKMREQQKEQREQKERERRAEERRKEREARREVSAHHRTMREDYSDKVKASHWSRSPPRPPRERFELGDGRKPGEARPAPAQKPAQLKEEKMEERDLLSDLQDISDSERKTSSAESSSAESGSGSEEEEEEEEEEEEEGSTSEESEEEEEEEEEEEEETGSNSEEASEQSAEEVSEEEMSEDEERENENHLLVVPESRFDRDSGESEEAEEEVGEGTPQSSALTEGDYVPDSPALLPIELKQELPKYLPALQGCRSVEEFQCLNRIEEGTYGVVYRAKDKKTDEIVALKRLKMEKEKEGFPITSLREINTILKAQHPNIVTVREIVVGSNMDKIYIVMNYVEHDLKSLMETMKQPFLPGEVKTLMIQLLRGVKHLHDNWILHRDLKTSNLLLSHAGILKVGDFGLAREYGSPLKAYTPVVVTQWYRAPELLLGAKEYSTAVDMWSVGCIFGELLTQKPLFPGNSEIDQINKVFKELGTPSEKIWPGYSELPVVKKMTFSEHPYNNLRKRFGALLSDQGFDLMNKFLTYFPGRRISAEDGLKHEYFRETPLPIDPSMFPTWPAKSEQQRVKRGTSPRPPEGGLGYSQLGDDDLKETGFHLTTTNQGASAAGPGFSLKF
reportedEndpoint: inhibition at 10 µM (%)

>>> print(df.to_string())
                                   molecule     reportedendpoint  quantitativeresult
0  COc1cc(F)ccc1-c1cc(Nc2cc(CS(C)(=N)=O)ccn2)ncc1F (stereo not drawn)  inhibition at 10 µM                48.5
1  CCN1CCN(Cc2ccc(Nc3ncc(F)c(-c4cc(F)c5nc(C)n(C(C)C)c5c4)n3)nc2)CC1  inhibition at 10 µM                23.7
2  Cc1ncc(-c2ccnc(Nc3ccc(S(C)(=O)=O)cc3)n2)n1C(C)C  inhibition at 10 µM                70.3
3  CCCCOc1c(C(=O)c2c(F)cc(C)cc2F)c[nH]c2nncc1-2  inhibition at 10 µM                13.2
4  CCN1CCN(Cc2ccc(NC(=O)Nc3ccc(Oc4cc(NC)ncn4)cc3)cc2C(F)(F)F)CC1  inhibition at 10 µM                75.4
5  COc1cc(F)ccc1-c1ncnc(Nc2cccc(C[S@](C)(=N)=O)c2)n1  inhibition at 10 µM                 7.6

* * *

target: CDK5/CDK5R1 (Homo sapiens, UniProt Q00535); test: NanoBRET live-cell target engagement, CDK5-NanoLuc/CDK5R1 in HEK-293; assay type: binding; conditions: CDK5/CDK5R1; 10µM; average of replicates; read-out: Inhibition at 10µM (%) Average
Sequence (Q00535 whole entry): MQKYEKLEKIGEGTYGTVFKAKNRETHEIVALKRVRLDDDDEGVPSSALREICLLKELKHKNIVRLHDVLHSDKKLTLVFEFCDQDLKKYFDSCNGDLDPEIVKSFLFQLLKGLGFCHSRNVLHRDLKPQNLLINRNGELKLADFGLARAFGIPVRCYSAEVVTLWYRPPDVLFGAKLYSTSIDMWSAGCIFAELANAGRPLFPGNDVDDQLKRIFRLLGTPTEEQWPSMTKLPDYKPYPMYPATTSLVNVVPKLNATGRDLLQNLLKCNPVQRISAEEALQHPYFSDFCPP
Sequence (Q15078 whole entry partner): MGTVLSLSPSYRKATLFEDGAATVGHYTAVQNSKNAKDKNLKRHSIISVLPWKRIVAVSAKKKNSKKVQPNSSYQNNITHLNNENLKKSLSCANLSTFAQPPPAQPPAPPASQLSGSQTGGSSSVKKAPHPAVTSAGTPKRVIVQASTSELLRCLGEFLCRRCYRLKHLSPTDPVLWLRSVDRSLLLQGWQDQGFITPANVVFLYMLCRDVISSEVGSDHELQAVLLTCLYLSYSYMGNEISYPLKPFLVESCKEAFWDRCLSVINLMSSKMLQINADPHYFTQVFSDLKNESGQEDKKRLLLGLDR
Quick list: inhibition at 10 µM per entry.
reportedEndpoint: inhibition at 10 µM (%)

In [3]: df
Out[3]:
                                   molecule  unitstring  quantitativeresult
0  C[C@H]1CC[C@H](n2c3cnccc3c3cnc(Nc4ccc5c(n4)CCN(C(=O)CO)C5)nc32)CC1           %                22.1
1  CCCCOc1c(C(=O)c2c(F)cc(C)cc2F)c[nH]c2nncc1-2           %                35.1
2  CCN1CCN(Cc2ccc(Nc3ncc(F)c(-c4cc(F)c5nc(C)n(C(C)C)c5c4)n3)nc2)CC1           %                40.9
3  CC(C)c1cnn2c(NCc3ccccc3)cc(NCCCCCCN)nc12           %                29.3
4  Cc1ncc(-c2ccnc(Nc3ccc(S(C)(=O)=O)cc3)n2)n1C(C)C           %                90.8
5  CCN1CCN(Cc2ccc(NC(=O)Nc3ccc(Oc4cc(NC)ncn4)cc3)cc2C(F)(F)F)CC1           %                38.1
6  COc1cc(F)ccc1-c1cc(Nc2cc(CS(C)(=N)=O)ccn2)ncc1F (centres unmarked)           %                56.6
7  COc1cc(F)ccc1-c1ncnc(Nc2cccc(C[S@](C)(=N)=O)c2)n1           %                26.1

* * *

target: CDK18/Cyclin Y (Homo sapiens, UniProt Q07002); assay: NanoBRET live-cell target engagement, CDK18-NanoLuc/Cyclin Y in HEK-293; type: binding; settings: 10µM; independent experiment 1
Sequence (Q07002 whole entry): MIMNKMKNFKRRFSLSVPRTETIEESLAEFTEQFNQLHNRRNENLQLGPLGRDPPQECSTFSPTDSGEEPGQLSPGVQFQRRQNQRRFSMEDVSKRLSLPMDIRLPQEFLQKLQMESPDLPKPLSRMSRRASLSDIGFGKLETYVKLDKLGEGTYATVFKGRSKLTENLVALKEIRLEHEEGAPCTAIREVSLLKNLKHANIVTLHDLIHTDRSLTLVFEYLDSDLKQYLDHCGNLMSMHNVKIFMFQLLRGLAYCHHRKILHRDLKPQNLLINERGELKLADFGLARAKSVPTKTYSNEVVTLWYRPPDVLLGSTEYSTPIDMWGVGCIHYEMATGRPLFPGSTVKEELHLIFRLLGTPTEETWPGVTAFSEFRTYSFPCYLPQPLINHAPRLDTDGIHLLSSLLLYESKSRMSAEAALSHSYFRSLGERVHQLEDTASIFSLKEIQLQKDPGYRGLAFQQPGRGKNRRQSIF
Sequence (Q8ND76 whole entry partner): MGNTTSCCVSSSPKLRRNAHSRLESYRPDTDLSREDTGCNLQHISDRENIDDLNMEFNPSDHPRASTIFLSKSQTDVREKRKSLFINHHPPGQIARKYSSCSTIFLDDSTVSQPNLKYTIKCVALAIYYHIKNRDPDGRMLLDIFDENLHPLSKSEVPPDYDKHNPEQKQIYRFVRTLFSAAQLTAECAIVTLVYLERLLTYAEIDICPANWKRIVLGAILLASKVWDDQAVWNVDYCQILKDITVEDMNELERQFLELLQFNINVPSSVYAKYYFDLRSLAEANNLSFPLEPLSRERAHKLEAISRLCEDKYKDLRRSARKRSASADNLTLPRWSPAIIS
reportedEndpoint: CDK18/Y Inhibition at 10µM (%)

>>> print(df.to_string())
                                   compound  quantitativeresult
0  Cc1c(Br)c(Br)c2c3c1nc(N1CCNCC1)n3CCC2.Cl [SEL 120-34A]                47.0
1  O=C1NCCc2[nH]c(-c3ccncc3)cc21 [PHA-767491]                21.8
2  CN(C)C/C=C/C(=O)Nc1ccc(C(=O)Nc2cccc(Nc3ncc(Cl)c(-c4c[nH]c5ccccc45)n3)c2)cc1 [THZ1]                73.0
3  O=C1NC(=NCc2cccs2)S/C1=C\c1ccc2ncccc2c1 [RO-3306]                 3.1

* * *

molecular target: CDK20/Cyclin H (Homo sapiens, UniProt Q8IZL9); assay: NanoBRET live-cell target engagement, NanoLuc-CDK20/Cyclin H in HEK-293; type: binding; settings: CDK20/H; experiment 2
Sequence (Q8IZL9 whole entry): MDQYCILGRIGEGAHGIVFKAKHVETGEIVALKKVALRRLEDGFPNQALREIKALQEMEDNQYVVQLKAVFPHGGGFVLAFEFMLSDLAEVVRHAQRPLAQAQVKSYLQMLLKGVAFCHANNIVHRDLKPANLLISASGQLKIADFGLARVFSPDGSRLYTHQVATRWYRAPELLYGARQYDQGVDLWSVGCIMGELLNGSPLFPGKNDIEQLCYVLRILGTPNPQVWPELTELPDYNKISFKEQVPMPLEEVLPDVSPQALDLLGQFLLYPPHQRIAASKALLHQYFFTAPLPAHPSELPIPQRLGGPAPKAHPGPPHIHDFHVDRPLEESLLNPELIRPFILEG
Sequence (P51946 whole entry partner): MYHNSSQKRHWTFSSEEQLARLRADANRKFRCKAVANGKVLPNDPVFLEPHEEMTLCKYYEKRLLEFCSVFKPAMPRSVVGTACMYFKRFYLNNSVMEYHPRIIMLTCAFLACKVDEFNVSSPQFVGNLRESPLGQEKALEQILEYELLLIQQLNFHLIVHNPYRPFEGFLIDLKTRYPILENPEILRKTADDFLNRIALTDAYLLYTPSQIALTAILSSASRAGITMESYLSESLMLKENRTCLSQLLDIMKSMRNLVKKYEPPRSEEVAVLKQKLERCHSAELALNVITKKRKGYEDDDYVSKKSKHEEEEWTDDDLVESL
Quick list: Inhibition at 10µM (%) per entry.
reportedEndpoint: Inhibition at 10µM (%)

                                   compound  quantitativeresult
0  CNc1nc(C)c(-c2nc(Nc3cccc(S(N)(=O)=O)c3)ncc2F)s1                44.8
1  CCn1cnc2c(Nc3cccc(Cl)c3)nc(N[C@@H]3CCCC[C@@H]3N)nc21 [CGP74514A]                47.3
2  CC(C)c1cnn2c(NCc3ccccc3-n3cccn3)nc(OC3CCCNC3)nc12 (stereo not drawn)                57.6
3  CS(=O)(=O)N1CCC(NC(=O)c2[nH]ncc2NC(=O)c2c(Cl)cccc2Cl)CC1                16.0
4  CC(C)c1c2cc(-c3ccnc(N[C@H]4CC[C@H](NC5CCOCC5)CC4)n3)ccc2nn1C                39.8
5  CN1CCC(c2c(O)cc(O)c3c(=O)cc(-c4ccccc4Cl)oc23)C1CO (stereo not drawn)                -6.9

* * *

Quick list: inhibition at 10 µM per entry.
molecular target: CDK19/Cyclin C (Homo sapiens); experiment: NanoBRET live-cell target engagement, NanoLuc-CDK19/Cyclin C in HEK-293; settings: read-out: Inhibition at 10µM (%) Average, CDK19/C; 10µM; average of replicates
Sequence (Q9BWU1 whole entry, one chain of several): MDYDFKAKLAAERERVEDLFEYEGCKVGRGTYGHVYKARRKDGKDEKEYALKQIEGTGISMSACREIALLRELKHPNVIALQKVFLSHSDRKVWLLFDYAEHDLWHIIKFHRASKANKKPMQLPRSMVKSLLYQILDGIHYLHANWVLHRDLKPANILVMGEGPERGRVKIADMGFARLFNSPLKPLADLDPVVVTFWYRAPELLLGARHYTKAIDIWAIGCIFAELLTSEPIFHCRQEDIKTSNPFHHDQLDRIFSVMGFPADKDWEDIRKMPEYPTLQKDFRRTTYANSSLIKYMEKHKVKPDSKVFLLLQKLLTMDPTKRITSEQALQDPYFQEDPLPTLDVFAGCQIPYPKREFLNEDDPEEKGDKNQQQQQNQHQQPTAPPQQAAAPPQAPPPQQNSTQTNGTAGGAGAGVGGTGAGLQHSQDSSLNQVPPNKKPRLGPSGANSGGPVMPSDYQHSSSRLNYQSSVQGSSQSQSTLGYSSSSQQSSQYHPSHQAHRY
reportedEndpoint: inhibition at 10 µM

>>> df
                                inputsmiles                  assayedsystem     reportedendpoint  result
0  O=C(NC1CCNCC1)c1[nH]ncc1NC(=O)c1c(Cl)cccc1Cl  CDK19/Cyclin C (Homo sapiens)  inhibition at 10 µM   41.9%
1  CCN1CCN(Cc2ccc(Nc3ncc(F)c(-c4cc(F)c5nc(C)n(C(C)C)c5c4)n3)nc2)CC1  CDK19/Cyclin C (Homo sapiens)  inhibition at 10 µM   40.7%
2  C[C@H]1CC[C@H](n2c3cnccc3c3cnc(Nc4ccc5c(n4)CCN(C(=O)CO)C5)nc32)CC1  CDK19/Cyclin C (Homo sapiens)  inhibition at 10 µM   16.1%
3  COc1cc(F)ccc1-c1ncnc(Nc2cccc(C[S@](C)(=N)=O)c2)n1  CDK19/Cyclin C (Homo sapiens)  inhibition at 10 µM   11.1%
